Target: T1, mouse DKK1 (R&D Systems) (mouse, UniProt O54908 32-272)
T1 construct: Bought protein
T1 sequence (looked up): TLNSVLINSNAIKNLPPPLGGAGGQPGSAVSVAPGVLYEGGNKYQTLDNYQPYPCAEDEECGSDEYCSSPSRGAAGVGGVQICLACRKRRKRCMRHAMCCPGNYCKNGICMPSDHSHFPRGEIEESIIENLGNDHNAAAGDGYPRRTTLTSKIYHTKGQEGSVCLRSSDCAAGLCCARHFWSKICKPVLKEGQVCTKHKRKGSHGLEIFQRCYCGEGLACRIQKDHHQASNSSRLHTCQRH
Assay: solution equilibrium titration (SET), ECL (BioVeris), Fab
readout name: Kd (nM)
Answers are plain numbers, in nM.

MOR04913 (Fab, V domains shown) VH: QVQLVESGGGLVQPGGSLRLSCAASGFTFNNYGMTWVRQAPGKGLEWVSGISGSGSYTYYADSVKGRFTISRDNSKNTLYLQMNSLRAEDTAVYYCARTIYMDYWGQGTLVTVSS VL: DIVLTQSPATLSLSPGERATLSCRASQNLFSPYLAWYQQKPGQAPRLLIYGASNRATGVPARFSGSGSGTDFTLTISSLEPEDFAVYYCQQYMTLPLTFGQGTKVEINR; 0.044

**Query** Query Kd for MOR04948 (Fab, V domains shown) VH: QVQLVESGGGLVQPGGSLRLSCAASGFTFSSYWMSWVRQAPGKGLEWVSGISYSGSNTHYADSVKGRFTISRDNSKNTLYLQMNSLRAEDTAVYYCARMGIDLDYWGQGTLVTVSS VL: DIALTQPASVSGSPGQSITISCTGTSSDVGGFNYVSWYQQHPGKAPKLMIHDGSNRPSGVSNRFSGSKSGNTASLTISGLQAEDEADYYCQTWDSLSFFVFGGGTKLTVLG
**Result** 0.065

Entry source: patent US20120023600A1
